- target_or_system: Endothelin-1 receptor (Rattus norvegicus, UniProt P26684)
- Sequence (P26684 whole entry): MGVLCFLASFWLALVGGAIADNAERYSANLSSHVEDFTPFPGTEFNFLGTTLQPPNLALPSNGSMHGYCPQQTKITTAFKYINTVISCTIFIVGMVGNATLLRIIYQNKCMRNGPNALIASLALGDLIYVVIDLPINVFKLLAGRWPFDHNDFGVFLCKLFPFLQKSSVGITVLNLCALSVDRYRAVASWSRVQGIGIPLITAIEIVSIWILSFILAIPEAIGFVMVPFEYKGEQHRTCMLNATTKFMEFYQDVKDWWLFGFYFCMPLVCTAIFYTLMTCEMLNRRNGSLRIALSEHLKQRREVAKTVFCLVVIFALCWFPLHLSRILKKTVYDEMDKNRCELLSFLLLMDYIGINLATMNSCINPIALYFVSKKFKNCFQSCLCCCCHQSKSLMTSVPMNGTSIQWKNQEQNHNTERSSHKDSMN
- assay_comment: Binding affinity for endothelin A receptor by inhibition of [125I]ET1 binding in rat aorta smooth muscle cells

>  <compound>
CCCCC1=C(C(=O)NS(C)(=O)=O)C(c2ccc3c(c2)OCO3)Oc2ccc(OC(C)C)cc21 (centres undefined)

>  <IC50>
48 nM

$$$$
>  <compound>
CCCOc1ccc2c(c1)C(c1ccc(OC)cc1)=C(C(=O)O)C(c1ccc3c(c1)OCO3)O2 (centres undefined)

>  <IC50>
4.4 nM

$$$$
>  <compound>
CCCCOc1ccc2c(c1)C(c1ccc3c(c1)OCO3)=C(C(=O)O)C(c1ccc(OC3CCCC3)cc1)O2 (centres undefined)

>  <IC50>
4800 nM

$$$$
>  <compound>
CCCCOc1ccc2c(c1)C(c1ccc3c(c1)OCO3)=C(C(=O)O)C(c1cccc(OC)c1)O2 (centres undefined)

>  <IC50>
350 nM

$$$$
>  <compound>
O=C(O)C1=C(c2ccc3c(c2)OCO3)c2ccccc2OC1c1ccc2c(c1)OCO2 (centres undefined)

>  <IC50>
350 nM

$$$$
>  <compound>
COc1ccc(CCOC2=C(C(=O)O)C(c3ccc4c(c3)OCO4)Oc3ccc(OC(C)C)cc32)cc1 (centres undefined)

>  <IC50>
3 nM

$$$$
>  <compound>
CCCOc1cccc2c1C(c1ccc(OC)cc1)=C(C(=O)O)C(c1ccc3c(c1)OCO3)O2 (centres undefined)

>  <IC50>
1200 nM

$$$$
>  <compound>
COc1ccccc1C1=C(C(=O)O)C(c2ccc3c(c2)OCO3)Oc2ccc(OC(C)C)cc21 (centres undefined)

>  <IC50>
3 nM

$$$$
>  <compound>
CCCCC1=C(C(=O)OC)C(c2ccc3c(c2)OCO3)Oc2ccc(OC(C)C)cc21 (centres undefined)

>  <IC50>
> 10000 nM

$$$$

---

- assay_comment: Ratio of inhibitory concentrations at ET-B receptor relative to that of ET-A receptor

>  <compound>
CCCOc1ccc2c(c1)OC(c1ccc3c(c1)OCO3)C(C(=O)O)=C2c1ccc(OC)cc1 (stereo not drawn)

>  <readout_relation>
=

>  <Ratio>
2.4

$$$$
>  <compound>
COc1ccc(C2=C(C(=O)O)C(c3ccc4c(c3)OCO4)Oc3ccccc32)cc1 (stereo not drawn)

>  <readout_relation>
=

>  <Ratio>
16

$$$$
>  <compound>
CCCCOC1=C(C(=O)O)C(c2ccc3c(c2)OCO3)Oc2ccc(OCC)cc21 (stereo not drawn)

>  <readout_relation>
=

>  <Ratio>
380

$$$$
>  <compound>
CC(C)Oc1ccc2c(c1)C=C(C(=O)O)C(c1ccc3c(c1)OCO3)O2 (stereo not drawn)

>  <readout_relation>
=

>  <Ratio>
160

$$$$
>  <compound>
COc1ccc(C2=C(C(=O)O)C(c3ccc4c(c3)OCO4)Oc3ccc(OC)cc32)cc1 (stereo not drawn)

>  <readout_relation>
=

>  <Ratio>
7.3

$$$$
>  <compound>
CCCCOC1=C(C(=O)O)C(c2ccc3c(c2)OCO3)Oc2ccc(OC)cc21 (stereo not drawn)

>  <readout_relation>
=

>  <Ratio>
9.2

$$$$
>  <compound>
COC1=C(C(=O)O)C(c2ccc3c(c2)OCO3)Oc2ccc(OC(C)C)cc21 (stereo not drawn)

>  <readout_relation>
=

>  <Ratio>
700

$$$$
>  <compound>
COc1ccc(C2=C(C(=O)O)C(c3ccc4c(c3)OCO4)Oc3ccc(OC(C)CO)cc32)cc1 (stereo not drawn)

>  <readout_relation>
=

>  <Ratio>
61

$$$$
>  <compound>
CCOc1ccc2c(c1)C(c1ccc(OC)cc1)=C(C(=O)O)C(c1ccc3c(c1)OCO3)O2 (stereo not drawn)

>  <readout_relation>
=

>  <Ratio>
110

$$$$
>  <compound>
CCCCOC1=C(C(=O)O)C(c2ccc3c(c2)OCO3)Oc2ccc(OCCCC)cc21 (stereo not drawn)

>  <readout_relation>
=

>  <Ratio>
160

$$$$
>  <compound>
COc1ccc(C2=C(C(=O)O)C(c3ccc4c(c3)OCO4)Oc3ccc(C(C)C)cc32)cc1 (stereo not drawn)

>  <readout_relation>
=

>  <Ratio>
1.7

$$$$
>  <compound>
CCCCOc1ccc2c(c1)C(c1ccc(OC)cc1)=C(C(=O)O)C(c1ccc3c(c1)OCO3)O2 (stereo not drawn)

>  <readout_relation>
=

>  <Ratio>
7.6

$$$$
>  <compound>
COC1=C(C(=O)O)[C@@H](c2ccc3c(c2)OCO3)Oc2ccc(OC(C)C)cc21

>  <readout_relation>
=

>  <Ratio>
670

$$$$
>  <compound>
CCCOc1cccc2c1C(c1ccc(OC)cc1)=C(C(=O)O)C(c1ccc3c(c1)OCO3)O2 (stereo not drawn)

>  <readout_relation>
=

>  <Ratio>
1.5

$$$$
>  <compound>
CCCCOC1=C(C(=O)O)C(c2ccc3c(c2)OCO3)Oc2ccccc21 (stereo not drawn)

>  <readout_relation>
=

>  <Ratio>
74

$$$$
>  <compound>
CCCCOC1=C(C(=O)O)C(c2ccc3c(c2)OCO3)Oc2ccc(OCCC)cc21 (stereo not drawn)

>  <readout_relation>
=

>  <Ratio>
260

$$$$
>  <compound>
CC(C)Oc1ccc2c(c1)C=C(C(=O)O)[C@H](c1ccc3c(c1)OCO3)O2

>  <readout_relation>
>

>  <Ratio>
60

$$$$
>  <compound>
CCCCOC1=C(C(=O)O)C(c2ccc3c(c2)OCO3)Oc2ccc(OC(C)C)cc21 (stereo not drawn)

>  <readout_relation>
=

>  <Ratio>
1900

$$$$

---

Each entry below carries its reported Ratio.
- assay_comment: Ratio of inhibitory concentrations at ET-B receptor relative to that of ET-A receptor
property_label: Ratio

>  <compound>
CCCCC1=C(C(=O)O)[C@@H](c2ccc3c(c2)OCO3)Oc2ccc(OC(C)C)cc21

>  <property_label>
Ratio

>  <recorded_result>
950

$$$$
>  <compound>
CCCCC1=C(C(=O)O)C(c2ccc3c(c2)OCO3)Oc2ccc(OC(C)C)cc21 (stereo not given)

>  <property_label>
Ratio

>  <recorded_result>
840

$$$$
>  <compound>
CC(C)Oc1ccc2c(c1)C=C(C(=O)O)[C@@H](c1ccc3c(c1)OCO3)O2

>  <property_label>
Ratio

>  <recorded_result>
220

$$$$
>  <compound>
CCCOc1ccc2c(c1)C(c1ccc(OC)cc1)=C(C(=O)O)C(c1ccc3c(c1)OCO3)O2 (stereo not given)

>  <property_label>
Ratio

>  <recorded_result>
50

$$$$
>  <compound>
COc1ccc(C2=C(C(=O)O)C(c3ccc4c(c3)OCO4)Oc3ccc(OCc4ccccc4)cc32)cc1 (stereo not given)

>  <property_label>
Ratio

>  <recorded_result>
13

$$$$

---

Each entry below carries its reported pIC50.
- target_or_system: Endothelin receptor type B (Sus scrofa, UniProt P35463)
- Sequence (P35463 whole entry): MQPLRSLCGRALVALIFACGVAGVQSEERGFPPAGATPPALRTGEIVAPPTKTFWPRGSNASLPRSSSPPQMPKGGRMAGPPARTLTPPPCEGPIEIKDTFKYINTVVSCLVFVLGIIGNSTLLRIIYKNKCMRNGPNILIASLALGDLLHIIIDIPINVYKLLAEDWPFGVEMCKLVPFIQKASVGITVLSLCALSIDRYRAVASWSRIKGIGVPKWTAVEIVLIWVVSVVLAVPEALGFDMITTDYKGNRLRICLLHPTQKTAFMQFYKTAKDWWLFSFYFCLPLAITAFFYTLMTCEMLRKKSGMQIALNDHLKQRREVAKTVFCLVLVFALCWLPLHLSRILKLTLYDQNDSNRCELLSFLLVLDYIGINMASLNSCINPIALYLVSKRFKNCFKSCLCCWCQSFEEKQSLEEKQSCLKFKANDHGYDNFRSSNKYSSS
- assay_comment: Binding affinity to endothelin B receptor measured by inhibition of [125I]ET-3 binding recombinant pig ET-B receptor expressed in COS-7 cells
pIC50: −log10 of the molar value.
property_label: pIC50

>  <molecule>
CCCCOc1ccc2c(c1)C(c1ccc3c(c1)OCO3)=C(C(=O)O)C(c1cc(OC)ccc1OC)O2 (centres undefined)

>  <property_label>
pIC50

>  <readout_relation>
=

>  <recorded_result>
5.80

$$$$
>  <molecule>
CCCCOc1ccc2c(c1)C(c1ccc3c(c1)OCO3)=C(C(=O)O)C(c1ccccc1OC)O2 (centres undefined)

>  <property_label>
pIC50

>  <readout_relation>
=

>  <recorded_result>
6.12

$$$$
>  <molecule>
O=C(O)C1=C(c2ccc3c(c2)OCO3)c2ccccc2OC1c1ccc2c(c1)OCO2 (centres undefined)

>  <property_label>
pIC50

>  <readout_relation>
=

>  <recorded_result>
6.15

$$$$
>  <molecule>
CCCCCCCCCCOC1=C(C(=O)O)C(c2ccc3c(c2)OCO3)Oc2ccc(OC(C)C)cc21 (centres undefined)

>  <property_label>
pIC50

>  <readout_relation>
=

>  <recorded_result>
5.12

$$$$
>  <molecule>
CCCCOc1ccc(C2Oc3ccc(OCCCC)cc3C(c3ccc4c(c3)OCO4)=C2C(=O)O)cc1 (centres undefined)

>  <property_label>
pIC50

>  <readout_relation>
=

>  <recorded_result>
5.44

$$$$
>  <molecule>
CCCCOC1=C(C(=O)O)C(c2ccc3c(c2)OCO3)Oc2ccc(OC)cc21 (centres undefined)

>  <property_label>
pIC50

>  <readout_relation>
=

>  <recorded_result>
5.64

$$$$
>  <molecule>
COc1ccc(C2=C(C(=O)O)[C@@H](c3ccc4c(c3)OCO4)Oc3ccc(OC(C)C)cc32)cc1

>  <property_label>
pIC50

>  <readout_relation>
=

>  <recorded_result>
6.92

$$$$
>  <molecule>
O=C(O)C1=C(c2ccccc2)c2ccccc2OC1c1ccc2c(c1)OCO2 (centres undefined)

>  <property_label>
pIC50

>  <readout_relation>
<

>  <recorded_result>
4.00

$$$$
>  <molecule>
O=C(O)C1=Cc2ccccc2OC1c1ccc2c(c1)OCO2 (centres undefined)

>  <property_label>
pIC50

>  <readout_relation>
<

>  <recorded_result>
4.00

$$$$
>  <molecule>
CCCCOC1=C(C(=O)O)C(c2ccc3c(c2)OCO3)Oc2ccccc21 (centres undefined)

>  <property_label>
pIC50

>  <readout_relation>
=

>  <recorded_result>
5.31

$$$$
>  <molecule>
CC(C)Oc1ccc2c(c1)C(c1ccc(O)cc1)=C(C(=O)O)C(c1ccc3c(c1)OCO3)O2 (centres undefined)

>  <property_label>
pIC50

>  <readout_relation>
=

>  <recorded_result>
5.32

$$$$
>  <molecule>
COc1ccc(C2=C(C(=O)O)C(c3ccc4c(c3)OCO4)Oc3ccc(OCc4ccccc4)cc32)cc1 (centres undefined)

>  <property_label>
pIC50

>  <readout_relation>
=

>  <recorded_result>
6.10

$$$$
>  <molecule>
COC1=C(C(=O)O)C(c2ccc3c(c2)OCO3)Oc2ccc(OC(C)C)cc21 (centres undefined)

>  <property_label>
pIC50

>  <readout_relation>
=

>  <recorded_result>
5.19

$$$$
>  <molecule>
CC(C)Oc1ccc2c(c1)C(c1ccc3c(c1)OCO3)=C(C(=O)O)C(c1ccc(C(C)C)cc1)O2 (centres undefined)

>  <property_label>
pIC50

>  <readout_relation>
=

>  <recorded_result>
5.57

$$$$
